tested on: human cancer cells (SMMC-7721, Hep G2, HCT116, EJ, H460); assay: MTT assay, summary statements across several human cancer cell lines; format: cell-based; conditions: Homo sapiens; cancer cell lines tested (SMMC-7721, Hep G2, HCT116); MTT; read-out: Antitumor activities (IC50) of capped analogs
pIC50: −log10 of the molar value.
Reported pIC50 by item:

MOLECULE	ASSAY_SYSTEM	READOUT_TYPE	RESULT
CC(=O)NCCCCCNC(=O)c1cc2c([nH]c3ccccc32)c(C)n1 [10a]	human cancer cells (SMMC-7721, Hep G2, HCT116, EJ, H460)	pIC50	< 4.30

Could you now consider this next molecule?
In: Looking for the measured pIC50 of Cc1nc(C(=O)NCCCCCNC(=O)c2ccccc2)cc2c1[nH]c1ccccc12 [10b] , can you help?
Out: < 4.30
